Data provenance is paper PMC7180984.

assay: Pharmacokinetic study in rats after oral administration of baricitinib suspension; type: in vivo, Sprague Dawely rats; conditions: Sprague-Dawley, rat, plasma; male rats, oral 2 mg/kg suspension, fasted, median
quantity kind: Tmax

Can you look up the measured Tmax of CCS(=O)(=O)N1CC(CC#N)(n2cc(-c3ncnc4[nH]ccc34)cn2)C1 for me?
30 min

----------
Experiment: Pharmacokinetic study in rats after oral administration of baricitinib suspension
Format: in vivo, Sprague Dawely rats
Details: Sprague-Dawley, rat, plasma; male rats, oral 2 mg/kg suspension, fasted, mean ± SD
Description: Sample analysis was performed on an Acquity TQD UPLC-MS/MS system (Waters Co., Milford, MA, USA). The triple quadrupole mass spectrometer was operated in the MRM mode, and detection was carried out using electrospray ionization (ESI) in the positive ion mode. […] Baricitinib was used to create a suspension using 1% carboxymethyl cellulose. […] The pharmacokinetic parameters Cmax, tmax, AUC, t½, and Kel were calculated using WinNonlin software.
quantity kind: Cmax (µg/mL)
Record the value in µg/mL, omitting the unit from your answer.

Look at this compound and give its reported Cmax. CCS(=O)(=O)N1CC(CC#N)(n2cc(-c3ncnc4[nH]ccc34)cn2)C1 [baricitinib, Baricitinib]
0.129
